Biological target: GBS Rex (Gbs1167) (Streptococcus agalactiae)
Construct: native Rex from pET101-Strex in E. coli TUNER (DE3), no tag used in purification; apo form eluted from 5' AMP-Sepharose; homodimer
Sequence (Q8E565 whole entry): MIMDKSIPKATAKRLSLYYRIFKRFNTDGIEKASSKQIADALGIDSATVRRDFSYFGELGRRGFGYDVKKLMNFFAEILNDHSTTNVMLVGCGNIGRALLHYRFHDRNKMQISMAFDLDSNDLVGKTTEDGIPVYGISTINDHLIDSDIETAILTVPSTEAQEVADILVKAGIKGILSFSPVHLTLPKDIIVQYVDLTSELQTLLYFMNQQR
Test: isothermal titration calorimetry, one-site fit
Format: binding
measurement_name: Kd (µM)
Give bare numbers, in µM.

Recorded Kd, per entry:
compound	assay_value
NC(=O)C1=CN([C@@H]2O[C@H](COP(=O)(O)OP(=O)(O)OC[C@H]3O[C@@H](n4cnc5c(N)ncnc54)[C@H](O)[C@@H]3O)[C@@H](O)[C@H]2O)C=CC1 [NADH]	0.357
NC(=O)C1=CN([C@@H]2O[C@H](COP(=O)(O)OP(=O)(O)OC[C@H]3O[C@@H](n4cnc5c(N)ncnc54)[C@H](OP(=O)(O)O)[C@@H]3O)[C@@H](O)[C@H]2O)C=CC1 [NADPH]	143

Shift focus to the following entry.
Requested read-out: Kd. Entry: NC(=O)c1ccc[n+]([C@@H]2O[C@H](COP(=O)(O)OP(=O)(O)OC[C@H]3O[C@@H](n4cnc5c(N)ncnc54)[C@H](O)[C@@H]3O)[C@@H](O)[C@H]2O)c1 [NAD^+]
76.9
